Target: Pdr3 (UniProt P33200)
Sequence: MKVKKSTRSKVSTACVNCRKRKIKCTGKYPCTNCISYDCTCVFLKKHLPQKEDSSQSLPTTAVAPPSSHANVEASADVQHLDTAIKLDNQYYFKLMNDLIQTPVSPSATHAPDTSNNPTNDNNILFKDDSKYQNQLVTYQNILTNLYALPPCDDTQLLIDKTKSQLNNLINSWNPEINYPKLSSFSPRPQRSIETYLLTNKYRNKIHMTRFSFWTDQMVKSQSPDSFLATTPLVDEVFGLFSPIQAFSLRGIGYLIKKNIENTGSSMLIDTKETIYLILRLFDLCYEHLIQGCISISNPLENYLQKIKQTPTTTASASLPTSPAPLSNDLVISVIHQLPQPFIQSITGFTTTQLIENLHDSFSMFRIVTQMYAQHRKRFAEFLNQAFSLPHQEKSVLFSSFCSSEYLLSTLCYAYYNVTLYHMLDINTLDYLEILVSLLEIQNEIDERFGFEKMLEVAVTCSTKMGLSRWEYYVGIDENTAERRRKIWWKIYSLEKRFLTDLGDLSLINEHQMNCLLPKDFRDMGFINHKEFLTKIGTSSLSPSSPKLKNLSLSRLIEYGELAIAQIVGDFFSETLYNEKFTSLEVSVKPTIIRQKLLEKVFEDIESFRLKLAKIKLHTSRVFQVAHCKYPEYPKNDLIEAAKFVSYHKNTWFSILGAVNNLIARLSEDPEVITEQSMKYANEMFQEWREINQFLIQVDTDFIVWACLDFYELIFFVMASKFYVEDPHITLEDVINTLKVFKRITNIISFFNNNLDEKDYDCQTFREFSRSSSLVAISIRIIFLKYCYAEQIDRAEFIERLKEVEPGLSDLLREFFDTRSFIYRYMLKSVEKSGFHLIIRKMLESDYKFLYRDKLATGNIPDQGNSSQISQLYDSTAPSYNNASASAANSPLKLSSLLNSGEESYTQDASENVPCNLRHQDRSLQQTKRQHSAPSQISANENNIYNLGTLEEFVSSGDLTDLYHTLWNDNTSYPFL
Test: PBM E-score (8-mer binding enrichment) (E-score (-0.5 to 0.5)); higher = stronger / more preferred TF binding
Details: protein concentration: 200 nM; construct: GST-full length
Over roughly 33,000 sequences, “E-score (-0.5 to 0.5)” has its median near -0.035; the highest 2% begin near 0.35. Shown is part of a subset that was picked to be rich in the highest values.
Experimental readout: PBM E-score

1) AAAACTAC : 0.179
2) CCAGCAAC : -0.00856
3) GCTGGCAA : 0.0154
4) CATAACCG : 0.135
5) ATGGATAC : -0.0299
6) ACGGATAC : 0.368
7) ACGGCGGA : 0.314
8) CCTAGATC : -0.201
9) ATGTCGAC : 0.0706
10) AGGCGGAG : 0.174
11) TTAGCGAA : 0.0125
12) CTGCTCCC : -0.0396
13) GCAGGAAA : -0.081
14) CTCGCTCC : 0.0762
15) TCCGGTAA : 0.307
16) CCTACTCC : -0.0705
17) GCCGGAGC : 0.236
18) TCCCCGGA : 0.411
19) AAGGATAC : -0.00551
20) AAGGGATT : -0.172
21) GCCGGAAC : 0.476
22) TGGCGGAA : 0.359
23) TCAACACA : -0.0355
24) GGCTGTTA : 0.0369
25) GGGCCCAA : 0.0863
26) GATCTTAC : -0.113
27) CCGGGAAA : 0.344
28) CGGTGTAG : -0.0315
29) CGGCGGAA : 0.456
30) ATGGAGCG : 0.0393
31) TCCGGAAA : 0.466
32) CCGGCGGC : 0.325
33) CGGGGAAC : 0.258
34) CGAAGAAC : 0.119
35) GAAAGCCC : 0.201
36) TCCCCGAA : 0.232
37) ATGTCTCA : -0.0576
38) GTGGCGGA : 0.271
39) AATCTCTG : -0.185
40) AAACCTAC : -0.103
41) GCGGCGGA : 0.404
42) CGCTGTAG : -0.00377
43) TCAGGAAA : -0.128
44) GCCCCGGC : 0.163
45) CGTGCCTC : -0.0179
46) AGCTAAAT : -0.165
